# growth inhibition annotations
experiment_summary: NCI Yeast Anticancer Drug Screen. Data for the rad50 strain (AID 155);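 note: 0% = growth of vehicle-only cultures of the same strain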
condition_details: S. cerevisiae rad50 strain growth inhibition; at 50.0 µM; hits give high values
About 79,000 compounds went through this panel and 15% of them were active in at least one assay; those are over-represented in the sample as a whole.
recorded_endpoint: growth inhibition (%)

INSERT INTO measurements (compound, result_unit, value) VALUES
  ('CCC(=O)NC1=C(Cl)C(=O)c2ccccc2C1=O', '%', 99.2),
  ('O=C(O)CC/C(=N\Nc1ccccc1)C(=O)O', '%', 97.2),
  ('Cc1cccc(C)c1NC(=O)CSC(N)=O', '%', 72.2),
  ('CSC(=S)/C(=C/Nc1ncccn1)c1ccccc1', '%', 94.8),
  ('CC(=O)c1cccc(NC(=O)C(=O)NNc2n[nH]c(=S)n2N)c1', '%', 89.4),
  ('COC(=O)c1c(COC(=O)NC(C)C)c2n(c1C)CS(=O)(=O)C2', '%', 97.3),
  ('COC([C@@H](OC(=O)c1ccccc1)[C@H](OC(=O)c1ccccc1)C(O)COC(=O)c1ccccc1)n1cc(C)c(=O)[nH]c1=O (stereo partly specified)', '%', 17.1),
  ('O=C1OC2(c3ccccc31)c1cc(I)c(O)c(I)c1Oc1c2cc(I)c(O)c1I', '%', 98.5),
  ('CCCCCCCCCCCc1ccn[nH]1', '%', 98.4),
  ('FC(F)(F)c1ccc(Cl)c(NC(=S)SC2CCCCC2)c1', '%', 98.5),
  ('O=C(COc1ccc2ccccc2c1)NC1c2ccccc2Oc2ccccc21', '%', 74.2),
  ('CCCCCN(CCCCC)C(=S)Nc1ccccc1', '%', 84.9),
  ('CCNC(=O)NNc1ncnc2c1c(-c1ccc(Cl)cc1)cn2-c1ccc(C)cc1', '%', 96.7),
  ('CCOC(=O)N1CCN(C(=S)N/N=C(\C)c2ncccn2)CC1', '%', 99.4),
  ('COc1ccc(C2SC(C)C(=O)N2c2nc(-c3nc(-c4ccc(Cl)cc4)cs3)cs2)cc1 (stereo unspecified)', '%', 45),
  ('Clc1ccc(C(c2ccc(Cl)cc2)c2cncnc2)cc1', '%', 89.8),
  ('Cc1c(C(C)(C)C)cc(C(C)(C)C)c(O)c1CN(C)Cc1c(C)c(C(C)(C)C)cc(C(C)(C)C)c1O', '%', 99.5),
  ('C=C1C2Oc3ccccc3C1N(c1ccccc1)O2 (stereo unspecified)', '%', 35),
  ('c1ccc([B-](c2ccccc2)(c2ccccc2)c2ccccc2)cc1', '%', 98.2),
  ('CCCCCCC(=O)Nc1ccc(OC(=O)CCCCCC)c(=O)cc1', '%', 98.8),
  ('C=CC[P+](CC[P+](CC=C)(c1ccccc1)c1ccccc1)(c1ccccc1)c1ccccc1', '%', 2.6),
  ('CC(O)CC(O)CC1CCCO1 (stereo unspecified)', '%', 39.2),
  ('CN(C)CC/C(=N\Nc1ccc([N+](=O)[O-])cc1)c1ccccc1', '%', 99.5),
  ('CCCCCCC(/C=C/c1c(Cl)cccc1Cl)=N\O', '%', 83.4),
  ('O=C(O)/C(=C\c1cc(I)c(O)c(I)c1)c1ccc(I)cc1', '%', 88.3),
  ('COC(=O)c1nc(=S)[nH]c(C(=O)OC)c1C(=O)c1c(C)[nH]c2ccccc12', '%', -25),
  ('CC(=O)OCCc1ccc(CCc2ccccc2)cc1', '%', 40.3),
  ('CCC1(C)C(C#N)(C#N)C1(C#N)C#N', '%', 81.7),
  ('Oc1c(C(Nc2ccccn2)c2ccccc2)ccc2cccnc12 (stereo unspecified)', '%', 94.6),
  ('C/C(=N\NC(=S)N1CCC(C)CC1)c1cccc2cccnc12', '%', 62.6),
  ('COCc1ccc([N+](=O)[O-])o1', '%', 71.5),
  ('c1ccc(C2=NOC3(c4ccccc4)SC4CCCCC4CN23)cc1 (stereo unspecified)', '%', 90.3),
  ('CCOC(=O)C1=C(N)OC(c2ccccc2)=C(C#N)C1c1ccc(C)cc1 (stereo unspecified)', '%', 96.1),
  ('Cc1cc(NC(=S)SC(C)C)ccc1Br', '%', 99.5),
  ('COc1cc(C/C(=C/c2ccc(OC)c3occc23)[N+](=O)[O-])cc(OC)c1OC', '%', 70.6),
  ('Nc1c(-c2ccc(Cl)cc2)[n+]([O-])c2ccccc2[n+]1[O-]', '%', 19.2),
  ('CC1=NN(c2ccccc2)C(=O)C1N=Nc1cc(Cl)cc(S(=O)(=O)O)c1O (stereo unspecified)', '%', 66.3),
  ('O=c1[nH]cc(F)c(=O)n1C1CCCCO1 (stereo unspecified)', '%', 46),
  ('C=C(CN(C)C)C(=O)c1ccc(OC2OC(COC(C)=O)C(OC(C)=O)C(OC(C)=O)C2OC(C)=O)cc1 (stereo unspecified)', '%', -5.65),
  ('O=C1c2cccc3cc4ccccc4c(c23)C(=O)N1CCCNCCNCCCN1C(=O)c2cccc3cc4ccccc4c(c23)C1=O', '%', 90.1),
  ('O=c1[nH]c2ccccc2c2cccc(F)c12', '%', 94.2),
  ('C[Si](C)c1cccc(Cl)c1', '%', 0.25),
  ('O=Cc1ccc([N+](=O)[O-])o1', '%', 99.6),
  ('O=[N+]([O-])c1ccc(N2N=NC(CN3CCOCC3)C2N2CCOCC2)cc1 (stereo unspecified)', '%', 77.5),
  ('CCCCCN(CCCCC)CC(=O)OCC1(C)CCCC2(C)C3CCC(C(C)C)=CC3=CCC12 (stereo unspecified)', '%', -3.45),
  ('Oc1ccc(CCCCCc2ccc(O)cc2)cc1', '%', 99.5);

Source listed as PubChem BioAssay (NCI).
